Target: Fibroblast growth factor 10 (Homo sapiens) (UniProt O15520)
Sequence (O15520 whole entry, looked up): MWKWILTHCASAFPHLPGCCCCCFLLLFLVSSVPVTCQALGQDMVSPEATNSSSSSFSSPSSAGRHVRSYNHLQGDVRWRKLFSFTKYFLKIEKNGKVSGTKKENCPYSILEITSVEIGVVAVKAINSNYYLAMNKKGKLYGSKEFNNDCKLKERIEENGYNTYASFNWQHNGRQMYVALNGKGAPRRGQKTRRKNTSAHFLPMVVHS
Assay: FGF10 binders on small-molecule microarrays, primary screen, biochemical, small-molecule microarray, 635 nm fluorescence (AID 1102)
Settings: FGF10 binding, fluorescence 635 nm, higher = more signal
Reported composite z-score values follow for various molecules
Write no unit; give the number alone.

The following molecules have reported results that may help.
| molecule | meas-value |
| --- | --- |
| COc1cc(OC)c(C(O)C2C=CC3C(=O)NC(=O)C3N2Nc2ccc(Cl)cc2Cl)cc1Br (centres undefined) | 0.0245 |
| COCCOC(=O)N1C(=O)[C@@]2(c3cc(C#CC4=CCCCC4)ccc31)[C@H](C(=O)Nc1nc3ccccc3s1)[C@H]1C(=O)O[C@H](c3ccccc3)[C@H](c3ccccc3)N1[C@@H]2c1ccccc1OCCO | 1.33 |
| C[N+](C)(C)CCCCNC(=O)[C@H]1C[C@H]2C(=O)N[C@@H](Cc3ccccc3)C(=O)N2[C@H]1c1ccc(O)cc1 | 0.612 |

Could you now consider this next molecule?
// composite z-score lookup, key: O=C(C1N=C(c2ccc(OCCCO)cc2)N(c2ccccc2)O1)N1CCOCC1 (centres undefined)
1.46

Data credit: PubChem BioAssay
